- target_or_system: IgG receptor FcRn large subunit p51 (Homo sapiens, UniProt P55899)
- Sequence (P55899 whole entry): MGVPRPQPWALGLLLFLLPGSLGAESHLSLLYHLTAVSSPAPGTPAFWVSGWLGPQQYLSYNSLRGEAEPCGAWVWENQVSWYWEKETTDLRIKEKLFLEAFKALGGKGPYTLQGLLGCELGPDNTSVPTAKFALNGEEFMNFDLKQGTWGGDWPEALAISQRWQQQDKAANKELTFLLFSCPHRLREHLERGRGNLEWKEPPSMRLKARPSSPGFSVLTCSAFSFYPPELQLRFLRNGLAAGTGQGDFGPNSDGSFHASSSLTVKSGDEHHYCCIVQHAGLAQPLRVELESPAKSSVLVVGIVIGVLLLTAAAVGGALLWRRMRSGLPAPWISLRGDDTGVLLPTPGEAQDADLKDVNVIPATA
- experimental_details: Binding affinity to human FcRn at pH 6 by surface plasmon resonance assay
Square brackets hold non-standard residues; d marks the D form. Peptide text beside a SMILES is read from it. NMeA = CN[C@@H](C)C(=O)O
property_label: Kd (µM)
Numeric answer only, unit µM assumed.

Completed entries (count: 2):
CC(C)C[C@H](NC(=O)CNC(=O)CNC(=O)[C@H](Cc1ccccc1)NC(=O)[C@H](Cc1cnc[nH]1)NC(=O)CNC(=O)[C@H](C)NC(=O)[C@H](CS)NC(=O)[C@H](Cc1ccccc1)NC(=O)[C@H](CCCN=C(N)N)NC(=O)[C@@H](N)CCC(N)=O)C(=O)N[C@@H](Cc1ccc(O)cc1)C(=O)N1CCC[C@H]1C(=O)N[C@@H](CS)C(=O)N[C@@H](CC(N)=O)C(=O)NCC(=O)N1CCC[C@H]1C(=O)O (H-QRFCAGHFGGLYPCNGP-OH); 4.9
CC(C)C[C@H](NC(=O)CNC(=O)CNC(=O)[C@H](Cc1ccccc1)NC(=O)[C@H](Cc1cnc[nH]1)NC(=O)CNC(=O)[C@@H](NC(=O)[C@@H](NC(=O)[C@H](Cc1ccccc1)NC(=O)[C@H](CCCNC(=N)N)NC(=O)[C@@H](N)CCC(N)=O)C(C)(C)S)[C@@H](C)O)C(=O)N[C@@H](Cc1c(F)c(F)c(F)c(F)c1F)C(=O)N1CCC[C@H]1C(=O)N[C@@H](CS)C(=O)N[C@@H](CC(N)=O)C(=O)NCC(=O)N1CCC[C@H]1C(=O)O; 72

Task item: Entry under review: CC(C)C[C@H](NC(=O)CNC(=O)CNC(=O)[C@H](Cc1ccccc1)NC(=O)[C@H](Cc1cnc[nH]1)NC(=O)CNC(=O)[C@H](C)N(C)C(=O)[C@H](CS)NC(=O)[C@H](Cc1ccccc1)NC(=O)[C@H](CCCNC(=N)N)NC(=O)[C@@H](N)CCC(N)=O)C(=O)N[C@@H](Cc1ccc(O)cc1)C(=O)N1CCC[C@H]1C(=O)N[C@@H](CS)C(=O)N[C@@H](CC(N)=O)C(=O)NCC(=O)N1CCC[C@H]1C(=O)O (H-QRFC[NMeA]GHFGGLYPCNGP-OH) . Reported Kd?
Reply: 18

---

- target_or_system: IgG receptor FcRn large subunit p51 (Homo sapiens, UniProt P55899)
- experimental_details: Inhibition of human IgG binding to soluble human FcRn by ELISA
Bridge positions count the residues as written; N and C are the ends. Peptide text beside a SMILES is read from it.
property_label: pIC50
// scale note: pIC50 = -log10(conc_M); give the bare number

CC(C)C[C@H](NC(=O)CNC(=O)CNC(=O)[C@H](Cc1ccccc1)NC(=O)[C@H](Cc1cnc[nH]1)NC(=O)CNC(=O)[C@@H](NC(=O)[C@H](CS)NC(=O)[C@H](Cc1ccccc1)NC(=O)[C@H](C)NC(=O)[C@@H](N)CCC(N)=O)[C@@H](C)O)C(=O)N[C@@H](Cc1ccc(O)cc1)C(=O)N1CCC[C@H]1C(=O)N[C@@H](CS)C(=O)N[C@@H](CC(N)=O)C(=O)NCC(=O)N1CCC[C@H]1C(=O)O; 4.64

# context switch: different compound, same pIC50
Task item: Entry under review: CC[C@H](C)[C@@H]1NC(=O)CNC(=O)CNC(=O)[C@H](Cc2ccccc2)NC(=O)[C@H](Cc2cnc[nH]2)NC(=O)CNC(=O)[C@H]([C@@H](C)O)NC(=O)[C@H](C(C)C)NC(=O)[C@@H](NC(=O)CNC(=O)CNC(=O)CN)CSSC[C@@H](C(=O)N[C@@H](CC(N)=O)C(=O)N[C@@H](Cc2ccc(O)cc2)C(=O)N[C@@H](CCC(N)=O)C(=O)O)NC(=O)[C@H](Cc2ccc(O)cc2)NC1=O (H-GGGCVTGHFGGIYCNYQ-OH; disulfide 4-14) . Reported pIC50?
Reply: 4.48
